FYI, the data here is from paper PMC6321388.

OBSERVABLE: IC50 (µM)
Lab book: enter the figure in µM, no units written.

Value sought: IC50, system RORγt (Homo sapiens, UniProt P51449), item CC(=O)N1CCN(c2ccc(N(C3CCC3)S(=O)(=O)Cc3ccccc3)cc2)CC1 . Result: 0.053

---

target: RORγt (Homo sapiens, UniProt P51449); construct: RORγt-LBD; assay: FRET coactivator-peptide recruitment assay with human RORγt-LBD (agonist, max. act. […])
Sequence (Q15788 2-1441): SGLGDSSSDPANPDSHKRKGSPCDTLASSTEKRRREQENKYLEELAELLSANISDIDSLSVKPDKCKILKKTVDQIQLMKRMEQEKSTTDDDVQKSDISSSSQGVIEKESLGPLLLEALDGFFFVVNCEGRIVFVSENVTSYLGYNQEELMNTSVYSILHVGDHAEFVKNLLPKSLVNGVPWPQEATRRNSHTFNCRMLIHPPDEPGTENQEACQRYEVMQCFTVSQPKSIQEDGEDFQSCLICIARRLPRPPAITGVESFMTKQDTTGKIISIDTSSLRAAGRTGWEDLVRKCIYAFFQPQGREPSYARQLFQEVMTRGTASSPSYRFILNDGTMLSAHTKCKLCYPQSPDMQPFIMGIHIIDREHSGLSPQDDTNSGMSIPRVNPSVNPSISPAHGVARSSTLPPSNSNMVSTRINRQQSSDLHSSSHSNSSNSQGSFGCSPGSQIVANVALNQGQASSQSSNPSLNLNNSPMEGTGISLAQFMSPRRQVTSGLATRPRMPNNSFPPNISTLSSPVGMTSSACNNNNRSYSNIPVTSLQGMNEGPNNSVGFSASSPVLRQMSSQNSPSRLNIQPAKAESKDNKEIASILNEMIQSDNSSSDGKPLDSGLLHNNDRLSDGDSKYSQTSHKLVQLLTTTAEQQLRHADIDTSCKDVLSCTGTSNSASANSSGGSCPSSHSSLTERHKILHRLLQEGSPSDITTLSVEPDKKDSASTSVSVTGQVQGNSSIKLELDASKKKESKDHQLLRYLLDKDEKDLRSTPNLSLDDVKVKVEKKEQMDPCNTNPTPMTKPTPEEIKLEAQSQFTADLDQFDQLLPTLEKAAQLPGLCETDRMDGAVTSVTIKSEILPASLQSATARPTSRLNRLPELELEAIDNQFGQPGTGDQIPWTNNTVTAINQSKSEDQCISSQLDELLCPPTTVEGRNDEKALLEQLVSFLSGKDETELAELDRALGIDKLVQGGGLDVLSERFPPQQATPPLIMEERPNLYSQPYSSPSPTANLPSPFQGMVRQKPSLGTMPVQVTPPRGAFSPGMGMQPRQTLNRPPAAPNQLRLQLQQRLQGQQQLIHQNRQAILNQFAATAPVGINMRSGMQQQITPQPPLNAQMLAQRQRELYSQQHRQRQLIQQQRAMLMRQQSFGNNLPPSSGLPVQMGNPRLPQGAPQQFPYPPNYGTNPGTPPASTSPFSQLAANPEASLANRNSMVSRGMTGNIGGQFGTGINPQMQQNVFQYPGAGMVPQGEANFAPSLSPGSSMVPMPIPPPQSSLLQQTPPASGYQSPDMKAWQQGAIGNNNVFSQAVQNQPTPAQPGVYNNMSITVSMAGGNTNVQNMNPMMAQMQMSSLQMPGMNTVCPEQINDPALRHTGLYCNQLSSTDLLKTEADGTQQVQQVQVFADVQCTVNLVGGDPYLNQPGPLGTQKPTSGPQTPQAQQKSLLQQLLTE
Sequence (P51449 265-507): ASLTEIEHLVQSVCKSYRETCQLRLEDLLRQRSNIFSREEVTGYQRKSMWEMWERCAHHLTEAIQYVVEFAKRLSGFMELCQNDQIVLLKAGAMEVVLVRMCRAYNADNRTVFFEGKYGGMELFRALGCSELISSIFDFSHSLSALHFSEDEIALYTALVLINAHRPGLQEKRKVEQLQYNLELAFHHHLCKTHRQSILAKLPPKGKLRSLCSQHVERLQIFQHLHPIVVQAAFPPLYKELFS
OBSERVABLE: pEC50
Hey, just a heads up that pEC50 is the negative log base 10 of the concentration in molar.

Value sought: pEC50, system RORγt (Homo sapiens, UniProt P51449), item CC(=O)N1CCN(c2ccc3c(c2)CCCN3S(=O)(=O)c2ccccc2)CC1 . Result: 5.43
